The reported numbers originate from patent US20090175860A1.

- TARGET ENTITY: rhesus c-Met on 4MBr-5 cells (rhesus)
- PROTOCOL DETAILS: cell-based or functional assay
MEASURE: EC50 [nM] 4Mbr-5 Proliferation IgG
Please state the number and follow it with the unit.

Some binders with recorded EC50 [nM] 4Mbr-5 Proliferation IgG:
- 04541 in IgG format (antibody, V domains shown) VH: QVQLQESGPGLVKPGETLSLTCTVSGGSISSSSYYWNWIRQAPGKGLEWIGEIYFGWTYYNPSLKGRVTISVDTSKNQFSLKLSSVTAEDTAVYYCARGYEFHGYTTFDYWGQGTLVTVSS VL: DIELTQPPSVSVAPGQTARISCSGDNIGSYYVYWYQQKPGQAPVLVIYDDNDRPSGIPERFSGSNSGNTATLTISGTQAEDEADYYCQSYDFPSIVFGGGTKLTVLG: 200 nM
- 04537 in IgG format (antibody, V domains shown) VH: QVQLVQSGAEVKKPGESLKISCKGSGYSFSNYWIGWVRQMPGKGLEWMGFIFPDTSYTRYSPSFQGQVTISADKSISTAYLQWSSLKASDTAMYYCARVKLITDYWGQGTLVTVSS VL: DIELTQPPSVSVAPGQTARISCSGDSLRSYFVSWYQQKPGQAPVLVIYDDDDRPSGIPERFSGSNSGNTATLTISGTQAEDEADYYCASWDTLSDVEVFGGGTKLTVLG: 150 nM

Reported EC50 [nM] 4Mbr-5 Proliferation IgG of 04687 in IgG format (antibody, V domains shown) VH: QVQLVQSGAEVKKPGSSVKVSCKASGGTFSSYAISWVRQAPGQGLEWMGGIDPFGTANYAQKFQGRVTITADESTSTAYMELSSLRSEDTAVYYCARVYQDVWGQGTLVTVSS VL: DIVMTQSPDSLAVSLGERATINCRSSQSILYGINNNFLGWYQQKPGQPPKLLIYWASTRESGVPDRFSGSGSGTDFTLTISSLQAEDVAVYYCQQYYNHPHTFGQGTKVEIKR : 6 nM

Reported EC50 [nM] 4Mbr-5 Proliferation IgG of 04536 in IgG format (antibody, V domains shown) VH: QVQLVQSGAEVKKPGASVKVSCKASGYTFTGYYMNWVRQAPGQGLEWMGIINPWTGNTNYAQKFQGRVTMTRDTSISTAYMELSSLRSEDTAVYYCARDPGFFYYTPSDLWGQGTLVTVSS VL: DIELTQPPSVSVAPGQTARISCSGDSIGNKYVHWYQQKPGQAPVLVIYADSDRPSGIPERFSGSNSGNTATLTISGTQAEDEADYYCQAYDSSMLRVFGGGTKLTVLG : 4 nM
